System: PC-3 prostate
PROCEDURE TEXT: NCI tumour cell line growth inhibition, 48 h
MEASURED ENDPOINT: log10 TGI (log10 of the value in µM)

{"COMPOUND": "O=C(c1ccsc1)c1cc2c(s1)C(=O)c1ccsc1C2=O", "TARGET": "PC-3 prostate", "MEASURED ENDPOINT": "log10 TGI", "REPORTED MEASUREMENT": -0.03}
{"COMPOUND": "CC(C)(C)C1CCC2c3c([nH]c4ccccc34)C3C(=O)N(c4cccc(Cl)c4)C(=O)C3C2C1 (configuration not stated)", "TARGET": "PC-3 prostate", "MEASURED ENDPOINT": "log10 TGI", "REPORTED MEASUREMENT": 1.57}
{"COMPOUND": "CC(C)=CCC/C(C)=C/CC/C(C)=C/[C@@H]1[C@@H](CO)[C@]1(C)CC/C=C(\\C)CCC=C(C)C", "TARGET": "PC-3 prostate", "MEASURED ENDPOINT": "log10 TGI", "REPORTED MEASUREMENT": 1.75}
{"COMPOUND": "CCN(CC)CCC(=O)c1ccc(Oc2ccc(C)cc2)cc1", "TARGET": "PC-3 prostate", "MEASURED ENDPOINT": "log10 TGI", "REPORTED MEASUREMENT": 1.58}
{"COMPOUND": "CCOC(=O)c1c(NS(=O)(=O)c2ccc(Br)cc2)sc2c1CCCC2", "TARGET": "PC-3 prostate", "MEASURED ENDPOINT": "log10 TGI", "REPORTED MEASUREMENT": 1.06}
{"COMPOUND": "O=C(c1ccc(F)c(F)c1Nc1ccc(I)cc1F)N1CC(O)([C@H]2CCCCN2)C1", "TARGET": "PC-3 prostate", "MEASURED ENDPOINT": "log10 TGI", "REPORTED MEASUREMENT": 1.35}
{"COMPOUND": "COc1cccc2c3cccc(OC)c3c3[nH]cnc3c12", "TARGET": "PC-3 prostate", "MEASURED ENDPOINT": "log10 TGI", "REPORTED MEASUREMENT": 0.66}
{"COMPOUND": "COc1ccc(Nc2nc(NCc3ccccc3)c3ccccc3n2)cc1", "TARGET": "PC-3 prostate", "MEASURED ENDPOINT": "log10 TGI", "REPORTED MEASUREMENT": 1.10}
{"COMPOUND": "C/C(Sc1ccccc1)=C1/CCCN(Cc2ccccc2)C1", "TARGET": "PC-3 prostate", "MEASURED ENDPOINT": "log10 TGI", "REPORTED MEASUREMENT": 1.78}
